Data credit: paper PMC3954597

Field: KM, steady-state dephosphorylation of the pY peptide. Provide a value for each of the binders that follow.
# measurement target: T1, R24M PTP1B catalytic domain (amino acids 1-321) (human) (UniProt P18031)
# T1 sequence: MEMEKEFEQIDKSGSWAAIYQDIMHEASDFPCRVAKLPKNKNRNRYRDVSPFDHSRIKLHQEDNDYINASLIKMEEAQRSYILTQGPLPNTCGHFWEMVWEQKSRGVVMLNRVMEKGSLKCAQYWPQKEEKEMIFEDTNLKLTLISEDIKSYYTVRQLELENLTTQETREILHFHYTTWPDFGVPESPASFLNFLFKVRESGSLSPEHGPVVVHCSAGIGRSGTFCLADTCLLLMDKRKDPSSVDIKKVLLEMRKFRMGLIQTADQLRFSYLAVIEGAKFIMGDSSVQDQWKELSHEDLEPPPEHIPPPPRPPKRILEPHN
Square brackets hold non-standard residues; d marks the D form. pY = N[C@@H](Cc1ccc(OP(=O)(O)O)cc1)C(=O)O

Using the record for Ac-EEDNAW[pY]AA-NH2 (SMILES CC(=O)N[C@@H](CCC(=O)O)C(=O)N[C@@H](CCC(=O)O)C(=O)N[C@@H](CC(=O)O)C(=O)N[C@@H](CC(N)=O)C(=O)N[C@@H](C)C(=O)N[C@@H](Cc1c[nH]c2ccccc12)C(=O)N[C@@H](Cc1ccc(OP(=O)(O)O)cc1)C(=O)N[C@@H](C)C(=O)N[C@@H](C)C(N)=O) [Ac-EEDNAWpYAA-NH2] , report its KM, steady-state dephosphorylation of the pY peptide.
1.9 µM

Using the record for Ac-DPRGI[pY]DQVAG-NH2 (SMILES CC[C@H](C)[C@H](NC(=O)CNC(=O)[C@H](CCCNC(=N)N)NC(=O)[C@@H]1CCCN1C(=O)[C@H](CC(=O)O)NC(C)=O)C(=O)N[C@@H](Cc1ccc(OP(=O)(O)O)cc1)C(=O)N[C@@H](CC(=O)O)C(=O)N[C@@H](CCC(N)=O)C(=O)N[C@H](C(=O)N[C@@H](C)C(=O)NCC(N)=O)C(C)C) [nephrin pY1217 peptide Ac-DPRGIpYDQVAG-NH2] , report its KM, steady-state dephosphorylation of the pY peptide.
71 µM
